# measured.on: T1, TNF-R1 (a protein having the amino acid sequence, Accession No. M58286 registered at GENBANK) (UniProt P19438 30-211, limits assumed)
# T1 construct: also called TNF receptor having a molecular weight of 55 kilo daltons
# T1 sequence (looked up): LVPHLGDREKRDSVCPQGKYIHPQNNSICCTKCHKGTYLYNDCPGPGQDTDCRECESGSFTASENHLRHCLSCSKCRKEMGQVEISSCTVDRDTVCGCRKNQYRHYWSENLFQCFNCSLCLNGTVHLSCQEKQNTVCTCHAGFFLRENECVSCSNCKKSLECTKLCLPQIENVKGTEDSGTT
# assay: SPR (BIACORE 2000), receptor on sensor tip; grade 2 = 0.5 to 0.1 time that of recombinant TNF-α
# binding affinity relative to recombinant TNF-α annotations
measurement.name: binding affinity relative to recombinant TNF-α

[[record]]
binder = "TNF mutant protein of clone No. 15 (ligand) VRSSSRTPSDMPVAHVVANPQAEGQLQWLNRRANALLANGVELRDNQLVVPSEGLYLIYSQVLFSGQGCPSTHVLLTHTISRITNHYSNPVNLLSAIRSPCQRETPEGAEANPWYEPIYLGGVFQLEPGDRLSAEINRPDYLDFAESGQVYFGIIAL"
result = "0.1 to 0.5 fold"

[[record]]
binder = "TNF mutant protein of clone No. 8 (ligand, Mutant of lysine-replaced TNF, made in E. coli) VRSSSRTPSDMPVAHVVANPQAEGQLQWRNEHANALLANGVELRDNQLVVPSEGLYLIYSQVLFSGQGCPSTHVLLTHTISRIAVSYQTPVNLLSAIRSPCQRETPEGAEANPWYEPIYLGGVFQLEPGDRLSAEINRPDYLDFNNAGQVYFGIIAL"
result = "0.1 to 0.5 fold"

[[record]]
binder = "TNF mutant protein of clone No. 9 (ligand, Mutant of lysine-replaced TNF, made in E. coli) VRSSSRTPSDMPVAHVVANPQAEGQLQWSNPMANALLANGVELRDNQLVVPSEGLYLIYSQVLFSGQGCPSTHVLLTHTISRIAVSYQTPVNLLSAIRSPCQRETPEGAEANPWYEPIYLGGVFQLEPGDRLSAEINRPDYLDFANPGQVYFGIIAL"
result = "0.1 to 0.5 fold"

